- Method notes: NCI Yeast Anticancer Drug Screen. Data for the mec2-1 strain (AID 157)
- Condition info: S. cerevisiae mec2-1 strain, at 50.0 µM, active compounds read high
- Description: Growth inhibition of yeast strains with defined genetic alterations is measured as a screen for potential anti-cancer activity. Selected strains with alterations in DNA damage repair or cell cycle control were exposed to compounds and growth inhibition was measured relative to vehicle treated controls. The strain used in this assay is mec2-1
The panel holds about 79,000 compounds, 15% with a hit somewhere; the sample as a whole holds those more often. Active and inactive are the calls of the source. No stated cut-off is given here; in the data, active means growth inhibition above about 70%; inactive means the rest.
Reported property: growth inhibition

Worked set:
Need growth inhibition, item O=C1Nc2ccccc2C1=O
11.4% (inactive)

Thanks! And N#Cc1c(C(=O)NN)c2c(-c3ccc4ccccc4c3)n[nH]c(=O)c2[nH]c1=O ?
23.4% (inactive)

Thanks! And CC(/C=N/NC1=NCCCN1)=N\NC1=NCCCN1 ?
-8.75% (inactive)

Thanks! And CC(=O)c1c(-c2ccc(Cl)cc2)c(-c2ccc(Cl)cc2)nn(CCN)c1=O ?
15.2% (inactive)

Thanks! And COc1ccc(C(=O)C(C(=O)CCC(=O)Nc2ccc(Cl)c(Cl)c2)c2ccc(OC)cc2)cc1 (stereo unspecified) ?
1.7% (inactive)

# context switch: different compound, same growth inhibition
Need growth inhibition, item CN(C)S(=O)(=O)c1c(N)ncn1C
6.85% (inactive)

====

Quick reference: growth inhibition of the listed items.
- Method notes: NCI Yeast Anticancer Drug Screen. Data for the sgs1 mgt1 strain (AID 161);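 further: 0% = growth of cultures given vehicle only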
- Condition info: S. cerevisiae sgs1 mgt1 strain, at 50.0 µM, active compounds read high
This is part of a sample that, as a whole, favours compounds with a hit. Of some 79,000 tested, about 15% had one in any assay.
Use % as the unit, but write only the number.

Worked set:
Need growth inhibition, item CN(/N=C/c1ccccc1)c1nnnn1-c1ccccc1
-5.85

Thanks! And C=C1CC(Cn2cc(C)c(=O)[nH]c2=O)(c2ccc(-c3ccccc3)cc2)OC1=O (stereo not drawn) ?
38.6

Thanks! And c1ccc(COC2C3COC(O3)C(OCc3ccccc3)C2OCc2ccccc2)cc1 (stereo not drawn) ?
26.4

Thanks! And COC(=O)C(C)CN1CCCCC1 (stereo not drawn) ?
22.1

Thanks! And Nc1nc(SCC(=O)O)nc2nc[nH]c12 ?
-13.3

Thanks! And O=C(NC(c1ccccc1)C(O)C(=O)OCc1ccc2c(c1)C(=O)c1ccccc1C2=O)c1ccccc1 (stereo not drawn) ?
-23.3

Thanks! And CC(NC(=O)OC(C)(C)C)C(=O)NC(Cc1ccccc1)C(=O)NCC(=O)ON=C1CCCC1 (stereo not drawn) ?
32.6

Thanks! And CCN(Cc1ccc(C(=O)OC)cc1)c1cccc(NC(C)=O)c1 ?
29.9

Others:
Need growth inhibition, item O=c1[nH]c2cc3ccccc3cc2c2ccccc12
0.8

Thanks! And COc1ccc(C2C(=O)c3ccc(OC)cc3OC2c2cccnc2)cc1 (stereo not drawn) ?
53.7

Thanks! And COc1ccc(/C=C2\N=C(c3cc(OC)c(OC)c(OC)c3)OC2=O)cc1Br ?
21.6

Thanks! And COC1=C(c2ccccc2)P(=O)(Cc2ccccc2)C(C)C1 (stereo not drawn) ?
24.6

Thanks! And CCCCCCCCCC(O)CCCC(O)C(O)CCCCCCC(=O)O (stereo not drawn) ?
22.7

====

- Method notes: NCI Yeast Anticancer Drug Screen. Data for the mec2-1 strain (AID 157)
- Condition info: S. cerevisiae mec2-1 strain, at 50.0 µM, active compounds read high
Compounds without any hit were thinned out: in the full panel of roughly 79,000, 15% have a hit.
Reported property: growth inhibition (%)
Use % as the unit, but write only the number.

Worked set:
Need growth inhibition, item Cc1ccc(NC(=S)N(CCC#N)C2CCCCC2)cc1
-10.1

Thanks! And CC#CC(O)(C(=O)OC1CCC2CCC1N2C)C1CCCC1 (configuration not stated) ?
-8.9

Thanks! And CCNC(=S)NCC ?
-28.8

Thanks! And CC(=O)Nc1ccc(C2CCCC2)cc1Br ?
-2.15

Thanks! And COc1ccc(-c2c3c(nc4nc(SC)nc(SC)c24)CCCC3)cc1OC ?
-10.4

Thanks! And CC(C)C(=O)/C=C/c1ccc(Br)cc1 ?
-4.95

# context switch: different compound, same growth inhibition
Need growth inhibition, item Oc1ccc2c(c1)-c1ccccc1C2
2.9

====

- Method notes: NCI Yeast Anticancer Drug Screen. Data for the rad50 strain (AID 155);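 further: 0% = growth of vehicle-only cultures of the same strain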
- Condition info: S. cerevisiae rad50 strain growth inhibition; at 50.0 µM; active compounds read high
About 79,000 compounds went through this panel and 15% of them were active in at least one assay; those are over-represented in the sample as a whole.
Reported property: growth inhibition (%)
Use % as the unit, but write only the number.

Worked set:
Need growth inhibition, item O=c1oc(Cl)cc2oc(=O)n(-c3ccccc3)c(=O)c12
10.8

Thanks! And COC1=NS(=O)(=O)C2(O1)c1ccccc1-c1ccccc12 ?
15.2

Others:
Need growth inhibition, item CC1=Nc2nc3ccccc3n2C(C)(C)C1
14.6

Thanks! And CCCCSc1nc2ccc(N=Cc3ccccc3O)cc2s1 ?
-19.6

Thanks! And CCSC(N)=Nc1ccccc1 (tested in a mixture with another compound) ?
13.2

Thanks! And O=C1c2ccccc2-c2c1cccc2[N+](=O)[O-] ?
48

Thanks! And CC(NC(=O)OCc1ccccc1)C(=O)Nc1ccc(C(=O)O)c(O)c1 (configuration not stated) ?
5.55

====

- Method notes: NCI Yeast Anticancer Drug Screen. Data for the mec2-1 strain (AID 157)
- Condition info: S. cerevisiae mec2-1 strain, at 50.0 µM, active compounds read high
Compounds without any hit were thinned out: in the full panel of roughly 79,000, 15% have a hit.
Reported property: growth inhibition (%)
Use % as the unit, but write only the number.

Worked set:
Need growth inhibition, item Cc1cc([N+](=O)[O-])c(C)c(Br)c1C
-20.2

Thanks! And O=[N+]([O-])c1ccc(-c2cc3ccccn3c2)cc1 ?
-46.2

Thanks! And COC(=O)/C=C(/C=C1/C(C#N)=C(N)N(c2ccc(Cl)cc2)C1(C)/C(=C/C(=O)OC)C(=O)OC)C(=O)OC (stereo not drawn) ?
-11.4

Others:
Need growth inhibition, item Cn1nnn2c(-c3ccccc3)nnc12
-2.45

Thanks! And CC(C)C(C)(C)C(N)=O ?
-0.95

Thanks! And CC(=O)NC(NCCN)(c1ccccc1)c1ccccc1 ?
-26.4

Thanks! And CCn1nc(C)c2c1C(=O)NCC(=O)N2 ?
-44.6

Thanks! And C=CCn1c(=S)sc2c(=O)[nH]cnc21 ?
1.7

====

- Method notes: NCI Yeast Anticancer Drug Screen. Data for the cln2 rad14 strain (AID 165);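 further: 0% = growth equal to vehicle treated cultures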
- Condition info: S. cerevisiae cln2 rad14 strain, at 50.0 µM, active compounds read high
About 79,000 compounds went through this panel and 15% of them were active in at least one assay; those are over-represented in the sample as a whole.
Reported property: growth inhibition (%)
Use % as the unit, but write only the number.

Worked set:
Need growth inhibition, item CCCC(=O)C1=CC(C(C)C)CCC1C (centres undefined)
-12.2

Thanks! And N#CCCCCBr ?
-50.7

Thanks! And COc1ccc2oc(=O)[nH]c2c1 ?
13.1

Thanks! And CCCCCCCCCCCCCCCc1c(NC(C)(CC)[P+](=O)O)c(=O)n(C)n1C (centres undefined) ?
-29.9

Thanks! And Cc1c(C)c(O)c2c(c1C)C(C)C(=O)OC2=O (centres undefined) ?
10

Thanks! And CCOC(=O)C/C(C(=O)O)=C(\C)c1ccc2ccccc2c1 ?
1.15

Thanks! And O=C(C(=O)c1cc(-c2ccccc2)nc2ccc3ccccc3c12)c1ccccc1 ?
13.9

Thanks! And Cn1c2ccccc2c2c(-c3ccccc3)cc3c(c21)C(=O)C=CC3=O ?
16.2

Others:
Need growth inhibition, item CC(=O)NNC(=S)N/C=C(\C#N)S(=O)(=O)c1ccc(C)cc1
-61.3

Thanks! And Cn1ccc2c3ccn(C)c3ccc21 ?
56.7

Thanks! And CC(=O)NCC(O)C(O)C(O)C(O)COC(=O)c1ccccc1 (centres undefined) ?
-6.45

Thanks! And CCCCCCCCCC(=O)OCC1OC(n2cc(F)c(=O)[nH]c2=O)C(N)C(OC(=O)CCCCCCCCC)C1O (centres undefined) ?
57.6

Thanks! And N#CCCN(CCC#N)c1ccc(C=O)cc1 ?
-4.25

Thanks! And Cc1csc(=NCc2cccnc2)n1C ?
23.4

Thanks! And NC(=O)OCC(COc1ccc(Cl)cc1)OC(=O)c1cc([N+](=O)[O-])cc([N+](=O)[O-])c1 (centres undefined) ?
17.6

====

- Method notes: NCI Yeast Anticancer Drug Screen. Data for the cln2 rad14 strain (AID 165);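 further: 0% = growth equal to vehicle treated cultures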
- Condition info: S. cerevisiae cln2 rad14 strain, at 50.0 µM, active compounds read high
The panel holds about 79,000 compounds, 15% with a hit somewhere; the sample as a whole holds those more often.
Reported property: growth inhibition (%)
Use % as the unit, but write only the number.

Need growth inhibition, item Nc1cc(C(=O)O)c2ccccc2c1
-16.8

Thanks! And CC(=O)Nc1ccc(S(=O)(=O)Nc2ccc([N+](=O)[O-])cc2)cc1 ?
-8.65

Thanks! And CCOC(=O)C1Cc2c(n(C3CCCCC3)c(=O)n(C)c2=O)OC1c1ccccc1 (stereo not drawn) ?
16.1

Others:
Need growth inhibition, item Nc1ncc2ncn(CCO)c2n1
1.95

Thanks! And O=C(CCN1CCCC1)c1ccccc1 ?
5.45

Thanks! And C=C(/C=C/CCCC)NC(=O)OCc1ccccc1 ?
-39.5

Thanks! And O=C(CCC(=O)Nc1ccc(Cl)c(Cl)c1)CC(=O)c1ccc2ccccc2c1 ?
19.9
